Tested on: SNB-75
Assay: NCI tumour cell line growth inhibition, 48 h
The source made the active and inactive calls. No stated cut-off is given here; in the data, active = GI50 up to about 1.1 µM and inactive = higher.
Select the correct class. Options are true (1) (active), false (0) (inactive) and nothing else.

Here are 5 compounds together with their reported answers.
CCOc1ccccc1NC(=O)C(=O)CC(=O)C1=C(C)Nc2ccccc2S1: false (0)
COc1ccccc1-c1nc(O)c2ccccc2n1: false (0)
C/N=C(\Nc1cccc(C(F)(F)F)c1)SCc1ccc(N=C=S)cc1: false (0)
c1cc2n(n1)CCN2: false (0)
CN(C)C(=S)SCC(N)=O: true (1)

Ask: Dear all, I need the recorded test outcome for COc1ccc2nc(-c3ccc(O)cc3)cn2c1 , thank you.
Result: false (0)

Ask: Dear all, I need the recorded test outcome for O=C1C=C(Br)c2c(-c3ccccc3)oc3cccc1c23 , thank you.
Result: false (0)

Ask: Dear all, I need the recorded test outcome for CCCCCCCCCCCCCCCC(=O)N(CCCCCCCCCCC(=O)O)CC(O)C(O)C(OC1OC(CO)C(O)C(O)C1O)C(O)CO (stereo not drawn) , thank you.
Result: false (0)

Reference for the values: ChEMBL document CHEMBL1201862
